Hello, the source for this data is the antibiotic and cytotoxicity screens of Wong et al. (2023), in case you need it.

- Test system: HepG2
- ASSAY SUMMARY: cytotoxicity call (relative viability < 0.9)
- PROTOCOL CONDITIONS: 10 µM
The whole screen tested about 39,000 compounds, of which about 3,300 (8.5%) were called active. This excerpt belongs to a sample that is enriched for actives.
Labels: Yes (active), No (inactive)

COMPOUND: COc1ccc(-c2c(O)c3c(OC)c4c(cc3oc2=O)OC(C)(C)C=C4)cc1
GROUP: No

COMPOUND: C[C@H](CO)N1C[C@H](C)[C@H](CN(C)Cc2ccc(Cl)c(Cl)c2)Oc2ccc(NC(=O)Cc3cn(C)c4ccccc34)cc2C1=O
GROUP: No

COMPOUND: C=CC(=O)Nc1ccccc1[C@@H](CCc1ccc(OC)c(OC)c1)OC(=O)[C@@H]1CCCCN1C(=O)C(=O)C(C)(C)CC
GROUP: No

COMPOUND: C[C@@H]1CN([C@H](C)CO)C(=O)c2cc(NC(=O)Cc3cn(C)c4ccccc34)ccc2O[C@H]1CN(C)Cc1ccc(Cl)c(Cl)c1
GROUP: No

COMPOUND: COc1cc2c(cc1OC)C1C(=O)c3ccc4c(c3OC1CO2)C=CC(C)(C)O4 (configuration not stated)
GROUP: Yes

COMPOUND: C[C@@H]1CN([C@H](C)CO)C(=O)c2cc(NC(=O)Cc3cn(C)c4ccccc34)ccc2O[C@@H]1CN(C)Cc1ccc(Cl)c(Cl)c1
GROUP: Yes

COMPOUND: C[C@@H]1CN([C@@H](C)CO)C(=O)c2cc(NC(=O)Cc3cn(C)c4ccccc34)ccc2O[C@@H]1CN(C)S(C)(=O)=O
GROUP: No
